// data source = PubChem BioAssay (NCI)

Tested on: RPMI-8226 leukemia
assay_text: NCI tumour cell line growth inhibition, 48 h
Where a SMILES comes first, the peptide text is derived from it. [ ]: non-standard residue; d: D form.
measurement_type: TGI

Quick check: TGI on RPMI-8226 leukemia, item CCOC(=O)c1nc2ccc(C(F)(F)F)cc2nc1Oc1ccc(C(=O)OC)cc1 ? > 100 µM

Quick check: TGI on RPMI-8226 leukemia, item CC(C)C[C@H](NC(=O)[C@H](CC(C)C)NC(=O)[C@@H](Cc1c[nH]c2ccccc12)NC(=O)[C@H](Cc1ccccc1)NC(=O)[C@@H](Cc1c[nH]c2ccccc12)NC(=O)[C@H](CCC(N)=O)NC(=O)[C@H](CCC(N)=O)NC(=O)[C@H]1CCCN1C(=O)[C@@H](N)CCCCN)C(N)=O (H-K[dP]QQ[dW]F[dW]LL-NH2) ? > 100 µM

Quick check: TGI on RPMI-8226 leukemia, item CN(C)c1ccc(C=C2C(=O)NC(=S)NC2=O)c2ccccc12 ? > 100 µM

Quick check: TGI on RPMI-8226 leukemia, item CC1(C)N=C(C2CCCN2C(=O)OCc2ccccc2)OC1=O (centres undefined) ? > 100 µM

Quick check: TGI on RPMI-8226 leukemia, item CCOC(=O)c1cccc(NC(=O)CI)c1 ? 3.28 µM

Quick check: TGI on RPMI-8226 leukemia, item N#CSCc1ccc(Cl)c(CSC#N)c1 ? 28.1 µM

Quick check: TGI on RPMI-8226 leukemia, item COc1cc(OC)c(C(=O)/C=C/c2cccc(C#N)c2)c(OC)c1 ? 4.31 µM

Quick check: TGI on RPMI-8226 leukemia, item O=CN1CCN(C(=O)c2ccc(Cl)c(Cl)c2)C1=S ? 7.74 µM

Quick check: TGI on RPMI-8226 leukemia, item c1ccc([I+]c2ccccc2)cc1 ? > 100 µM

Quick check: TGI on RPMI-8226 leukemia, item O=C1c2ccccc2N2Oc3ccccc3C12c1ccccc1 (centres undefined) ? > 100 µM

Quick check: TGI on RPMI-8226 leukemia, item Cc1ccc(-c2csc(NC(=O)N3CCN(c4cc5c(cc4F)c(=O)c(C(=O)O)cn5C4CC4)CC3)n2)cc1 ? 1.9 µM

Quick check: TGI on RPMI-8226 leukemia, item CC(C)Oc1c(-c2ccc(F)cc2)c(O)c2c3c1oc(=O)n3C=CC2C (centres undefined) ? 34.7 µM

Quick check: TGI on RPMI-8226 leukemia, item ClCCCCCc1c2nc(c(CCCCCCl)c3ccc([nH]3)c(CCCCCCl)c3ccc([nH]3)c(CCCCCCl)c3nc1C=C3)C=C2 ? > 100 µM

Quick check: TGI on RPMI-8226 leukemia, item CN(C)CC1CCC2=C(C1=O)C(c1ccc(Cl)c(Cl)c1)C1=C(CCC(CN(C)C)C1=O)O2 (centres undefined) ? 4.36 µM

Quick check: TGI on RPMI-8226 leukemia, item COc1cccc(/C=C2\S/C(=N/Nc3nc(-c4ccc([N+](=O)[O-])cc4)cs3)NC2=O)c1O ? 35.2 µM

Quick check: TGI on RPMI-8226 leukemia, item ON=C(CC(O)(C(F)(F)Cl)C(F)(F)Cl)CC(O)(C(F)(F)Cl)C(F)(F)Cl ? > 10 µM

Quick check: TGI on RPMI-8226 leukemia, item Cc1nc2sccn2c1/C=C1/C(=O)Nc2cccc(Cl)c21 ? > 100 µM

Quick check: TGI on RPMI-8226 leukemia, item CC1C(C#N)(C#N)C(C#N)=C(N)C1(Cl)[N+](=O)[O-] (centres undefined) ? 39.8 µM

Quick check: TGI on RPMI-8226 leukemia, item CC1(C)CC2CC(CC(C)(C)C2=O)C1=O ? > 100 µM
